Tested on: E. coli K12
Type: cell-based, Escherichia coli
Settings: K12, 20 h
Square brackets hold non-standard residues; d marks the D form. Peptide text beside a SMILES is read from it.
Please go through the items and note down their MIC E. coli K12.
Numbers only, in µM.

>>> val("CC[C@H](C)[C@H](NC(=O)[C@H](CCCCN)NC(=O)[C@H](CCCNC(=N)N)NC(=O)[C@H](CC(C)C)NC(=O)[C@H](Cc1c[nH]c2ccccc12)NC(=O)[C@H](Cc1c[nH]c2ccccc12)NC(=O)[C@@H](N)Cc1c[nH]c2ccccc12)C(=O)N[C@@H](Cc1c[nH]c2ccccc12)C(=O)O [TetraF2W-RK] (H-WWWLRKIW-OH)")
25

[Q] Item CC[C@@H](C)[C@@H](NC(=O)[C@@H](CCCCN)NC(=O)[C@@H](CCCNC(=N)N)NC(=O)[C@@H](CC(C)C)NC(=O)[C@@H](Cc1c[nH]c2ccccc12)NC(=O)[C@@H](Cc1c[nH]c2ccccc12)NC(=O)[C@H](N)Cc1c[nH]c2ccccc12)C(=O)N[C@H](Cc1c[nH]c2ccccc12)C(=O)O [TetraF2W-RK-d] (H-[dW][dW][dW][dL][dR][dK][dI][dW]-OH) : provide MIC E. coli K12
[A] 6.2

* * *

Test system: B. subtilis 168
Assay type: cell-based, Bacillus subtilis
Conditions: 168, 20 h
Square brackets hold non-standard residues; d marks the D form. Peptide text beside a SMILES is read from it.
Experimental Readout: MIC B. subtilis 168 (µM)
Give bare numbers, in µM.

>>> val("CC[C@H](C)[C@H](NC(=O)[C@H](CCCCN)NC(=O)[C@H](CCCNC(=N)N)NC(=O)[C@H](CC(C)C)NC(=O)[C@H](Cc1c[nH]c2ccccc12)NC(=O)[C@H](Cc1c[nH]c2ccccc12)NC(=O)[C@@H](N)Cc1c[nH]c2ccccc12)C(=O)N[C@@H](Cc1c[nH]c2ccccc12)C(=O)O [TetraF2W-RK] (H-WWWLRKIW-OH)")
6.2
>>> val("CC[C@H](C)[C@H](NC(=O)[C@H](CCCNC(=N)N)NC(=O)[C@H](CCCCN)NC(=O)[C@H](CC(C)C)NC(=O)[C@H](Cc1c[nH]c2ccccc12)NC(=O)[C@H](Cc1c[nH]c2ccccc12)NC(=O)[C@@H](N)Cc1c[nH]c2ccccc12)C(=O)N[C@@H](Cc1c[nH]c2ccccc12)C(=O)O [TetraF2W-KR] (H-WWWLKRIW-OH)")
6.2
>>> val("CC[C@H](C)[C@H](NC(=O)[C@H](CCCNC(=N)N)NC(=O)[C@H](CO)NC(=O)[C@H](CC(C)C)NC(=O)[C@H](Cc1c[nH]c2ccccc12)NC(=O)[C@H](Cc1c[nH]c2ccccc12)NC(=O)[C@@H](N)Cc1c[nH]c2ccccc12)C(=O)N[C@@H](Cc1c[nH]c2ccccc12)C(=O)O [TetraF2W] (H-WWWLSRIW-OH)")
6.2

Quick batch: MIC B. subtilis 168 for everything below.
1. CC[C@@H](C)[C@@H](NC(=O)[C@@H](CCCCN)NC(=O)[C@@H](CCCNC(=N)N)NC(=O)[C@@H](CC(C)C)NC(=O)[C@@H](Cc1c[nH]c2ccccc12)NC(=O)[C@@H](Cc1c[nH]c2ccccc12)NC(=O)[C@H](N)Cc1c[nH]c2ccccc12)C(=O)N[C@H](Cc1c[nH]c2ccccc12)C(=O)O [TetraF2W-RK-d] (H-[dW][dW][dW][dL][dR][dK][dI][dW]-OH)
2. CC[C@H](C)[C@H](NC(=O)[C@H](CCCCN)NC(=O)[C@H](CCCCN)NC(=O)[C@H](CC(C)C)NC(=O)[C@H](Cc1c[nH]c2ccccc12)NC(=O)[C@H](Cc1c[nH]c2ccccc12)NC(=O)[C@@H](N)Cc1c[nH]c2ccccc12)C(=O)N[C@@H](Cc1c[nH]c2ccccc12)C(=O)O [TetraF2W-KK] (H-WWWLKKIW-OH)

[A]
1. 3.1
2. 6.2

* * *

Test system: S. aureus USA300
Assay type: cell-based, Staphylococcus aureus
Details: USA300, 20 h
Square brackets hold non-standard residues; d marks the D form. Peptide text beside a SMILES is read from it.
Experimental Readout: MIC S. aureus USA300 (µM)
Give bare numbers, in µM.

>>> val("CC[C@H](C)[C@H](NC(=O)[C@H](CCCCN)NC(=O)[C@H](CCCNC(=N)N)NC(=O)[C@H](CC(C)C)NC(=O)[C@H](Cc1c[nH]c2ccccc12)NC(=O)[C@H](Cc1c[nH]c2ccccc12)NC(=O)[C@@H](N)Cc1c[nH]c2ccccc12)C(=O)N[C@@H](Cc1c[nH]c2ccccc12)C(=O)O [TetraF2W-RK] (H-WWWLRKIW-OH)")
3.1

Consider now this further compound.
[Q] Item CC[C@@H](C)[C@@H](NC(=O)[C@@H](CCCCN)NC(=O)[C@@H](CCCNC(=N)N)NC(=O)[C@@H](CC(C)C)NC(=O)[C@@H](Cc1c[nH]c2ccccc12)NC(=O)[C@@H](Cc1c[nH]c2ccccc12)NC(=O)[C@H](N)Cc1c[nH]c2ccccc12)C(=O)N[C@H](Cc1c[nH]c2ccccc12)C(=O)O [TetraF2W-RK-d] (H-[dW][dW][dW][dL][dR][dK][dI][dW]-OH) : provide MIC S. aureus USA300
[A] 3.1

* * *

Tested on: E. coli K12
Format: cell-based, Escherichia coli
Details: K12, 20 h
Peptide text beside a SMILES is read from it.
Experimental Readout: MIC E. coli K12

Consider the reported MIC E. coli K12 for these compounds:
>>> val("CC[C@H](C)[C@H](NC(=O)[C@H](CCCNC(=N)N)NC(=O)[C@H](CO)NC(=O)[C@H](CC(C)C)NC(=O)[C@H](Cc1c[nH]c2ccccc12)NC(=O)[C@H](Cc1c[nH]c2ccccc12)NC(=O)[C@@H](N)Cc1c[nH]c2ccccc12)C(=O)N[C@@H](Cc1c[nH]c2ccccc12)C(=O)O [TetraF2W] (H-WWWLSRIW-OH)")
">100 µM"
>>> val("CC[C@H](C)[C@H](NC(=O)[C@H](CCCNC(=N)N)NC(=O)[C@H](CCCCN)NC(=O)[C@H](CC(C)C)NC(=O)[C@H](Cc1c[nH]c2ccccc12)NC(=O)[C@H](Cc1c[nH]c2ccccc12)NC(=O)[C@@H](N)Cc1c[nH]c2ccccc12)C(=O)N[C@@H](Cc1c[nH]c2ccccc12)C(=O)O [TetraF2W-KR] (H-WWWLKRIW-OH)")
"12.5 to 25 µM"

Consider now this further compound.
[Q] Item CC[C@H](C)[C@H](NC(=O)[C@H](CCCCN)NC(=O)[C@H](CCCCN)NC(=O)[C@H](CC(C)C)NC(=O)[C@H](Cc1c[nH]c2ccccc12)NC(=O)[C@H](Cc1c[nH]c2ccccc12)NC(=O)[C@@H](N)Cc1c[nH]c2ccccc12)C(=O)N[C@@H](Cc1c[nH]c2ccccc12)C(=O)O [TetraF2W-KK] (H-WWWLKKIW-OH) : provide MIC E. coli K12
[A] 12.5 to 25 µM
